System: NCI-H322M lung
Assay: NCI-60 one-dose screen, 48 h (100 = growth as untreated, 0 = no growth, -100 = all killed)
Conditions: 10 µM unless noted
This is part of a sample that, as a whole, favours compounds with a hit. Of some 83,000 tested, about 20% had one in any assay.
measured_parameter: growth (%)
Express it in %; write the number only.

compound=COc1ccc(N=Nc2c(N)nn3c(-c4ccc(F)cc4)ccnc23)cc1 unit_descriptor=% val=84.3
compound=COc1ccc(Nc2ncnc3sc4c(c23)CCN(Cc2ccccc2)C4)cc1 unit_descriptor=% val=93.7
compound=O=C1c2cccc3c(N4CCN(Cc5ccccc5)CC4)ccc(c23)C(=O)N1c1cccc(-c2nn(-c3ccccc3)cc2-c2nc3ccccc3s2)c1 unit_descriptor=% val=101

Looking up c1n[nH]cc1-c1nc2ccc3[nH]ncc3c2c2c1CC1(CCOCC1)CC2 , I found its growth recorded as 48.6

Looking up COc1ccc(N=Nc2c(N)nn3c(N)c(C#N)c(-c4ccccc4)nc23)cc1 , I found its growth recorded as 45.7

Looking up OC1CCC(Cn2c(C(F)(F)F)cc3c(Cl)ncnc32)CC1 (centres undefined) , I found its growth recorded as -13.9

Looking up O=C(/C=C1\C(=O)N(Cc2ccccc2)c2ccccc21)c1cc2ccccc2oc1=O , I found its growth recorded as 93.9

Looking up COc1ccc2[nH]cc(-c3cc4nc(-c5cn(C)c6ncccc56)cc(N)n4n3)c2c1 , I found its growth recorded as 37.1

Looking up Nc1cc(-c2c[nH]c3ccc(F)cc23)nc2cc(-c3c[nH]c4ccccc34)nn12 , I found its growth recorded as 30.2

Looking up CCCCNc1ccc2c3c(cccc13)C(=O)N(c1cccc(-c3nn(-c4ccccc4)cc3-c3nc4ccccc4s3)c1)C2=O , I found its growth recorded as 104

Looking up COc1c(F)ccc(C(=O)Nc2ccc3nc(NC(=O)C4CCCN(S(=O)(=O)c5ccc(C(C)(C)C)cc5)C4)sc3c2)c1F (centres undefined) , I found its growth recorded as 80.3

Looking up O=C(NNC(=O)c1ccc(OCc2nc3ccc(Cl)cc3[nH]2)cc1)Nc1ccc(Cl)c(C(F)(F)F)c1 , I found its growth recorded as 43.6

Looking up CN1CCN(C(=O)Oc2cc3c(c4ccccc24)[C@H](CCl)CN3C(=O)c2cc3cc(OCCCN4CCC4)ccc3[nH]2)[C@@H]2CSSC[C@H]21 , I found its growth recorded as 2.48

Looking up CS(=O)(=O)c1ccc(-n2nc(C(=O)NCc3ccccc3)cc2-c2ccc(Cl)cc2)cc1 , I found its growth recorded as 88.1

###

System: TK-10 renal
Test: NCI-60 one-dose screen, 48 h (100 = growth as untreated, 0 = no growth, -100 = all killed)
Details: 10 µM unless noted
This is part of a sample that, as a whole, favours compounds with a hit. Of some 83,000 tested, about 20% had one in any assay.
Threshold check on growth: at or above 40% gives class 1, strictly below gives class 0.

Consider the following illustrative entries.
molecule=NC1(c2ccc(-c3ccc4ncnc(NCc5ccccc5)c4c3)cn2)COC1 group_label="class 1"
molecule=O=CNc1cccc(-n2cnc3cc(-c4ccc(O)cc4)ccc32)c1 group_label="class 1"

Exam item: Hi team, for COc1sc(/C=N/NC(=O)c2[nH]c3ccc(Br)cc3c2-c2ccccc2)cc1Cl , is the recorded growth at or above 40%?
Marked response: class 0

Exam item: Hi team, for COc1ccc2[nH]c(=O)c(CSc3ccccc3Nc3nccc(-c4ccc(Cl)cc4)n3)cc2c1 , is the recorded growth at or above 40%?
Marked response: class 1

Exam item: Hi team, for C/C(=N/O)c1ccc(NC(=O)CSc2nnc(-c3ccc(-c4nc5ccc(Cl)cc5[nH]4)cc3)o2)cc1 , is the recorded growth at or above 40%?
Marked response: class 1

Exam item: Hi team, for Clc1ccccc1Nc1nnc(-c2c[nH]c3ccccc23)o1 , is the recorded growth at or above 40%?
Marked response: class 1

Exam item: Hi team, for Cc1ccc2nc(COc3ccc(C(=O)NNC(=O)Nc4ccc(Cl)c(C(F)(F)F)c4)cc3)[nH]c2c1 , is the recorded growth at or above 40%?
Marked response: class 1

Exam item: Hi team, for Oc1ccc(Cl)c(Nc2nc(SCCN3CCOCC3)nc3c2cnn3CC(Cl)c2ccc(Br)cc2)c1 (configuration not stated) , is the recorded growth at or above 40%?
Marked response: class 0

Exam item: Hi team, for COc1ccc(-c2cc(C)nc3[nH]c(=O)sc23)cc1 , is the recorded growth at or above 40%?
Marked response: class 0

###

Tested on: CAKI-1 renal
Experiment: NCI-60 one-dose screen, 48 h
Conditions: 10 µM unless noted
Compounds without any hit were thinned out: in the full panel of roughly 83,000, 20% have a hit. The source made the active and inactive calls. How the source made its calls: active means growth percent below 10; inactive means the rest.
Allowed answers: active, inactive

Consider the following illustrative entries.
compound=O=C(Nc1nc2ccc([N+](=O)[O-])cc2s1)Nc1ccc(Cl)cc1Cl test_system="CAKI-1 renal" group_label=inactive
compound="CCN(C(=O)CN1C(=O)/C(=C/c2ccco2)SC1=S)C1CCS(=O)(=O)C1 (centres undefined)" test_system="CAKI-1 renal" group_label=inactive
compound=S=C(Nc1ccc(OCc2nc3ccc(Cl)cc3[nH]2)cc1)NC1CCCCC1 test_system="CAKI-1 renal" group_label=active

Exam item: Check the results log: what was the call for COc1ccc(NC(=O)CSc2nnc(-c3ccc(-c4nc5ccc(Cl)cc5[nH]4)cc3)o2)cc1 ?
Marked response: active

###

System: HS 578T breast
Assay: NCI-60 one-dose screen, 48 h
Settings: 10 µM unless noted
The panel holds about 83,000 compounds, 20% with a hit somewhere; the sample as a whole holds those more often. Active and inactive are the calls of the source. The calls were made as follows: active = growth percent below 10; inactive = the rest.
Allowed answers: active, inactive

structure=CCCN(CCC)S(=O)(=O)c1ccc(C(=O)O)cc1.CCCN(CCC)S(=O)(=O)c1ccc(C(=O)O)cc1.[Cl][Pt+2][Cl].[NH2-].[NH2-] test_system="HS 578T breast" group_label=inactive

Exam item: Check the results log: what was the call for Cc1ccc(C(=O)Nc2cc(-c3ccccc3)cc(C(F)(F)F)c2)cc1C#Cc1cnc2cccnn12 ?
Marked response: inactive

Exam item: Check the results log: what was the call for C#CCN(C)CCCOc1ccc(N(C)C(=O)c2cc(C(C)C)c(O)cc2O)cc1Cl ?
Marked response: inactive

Exam item: Check the results log: what was the call for NC1(c2ccc(-c3ccc4ncnc(NCc5ccccc5)c4c3)cn2)COC1 ?
Marked response: inactive

###

System: A498 renal
Assay: NCI-60 one-dose screen, 48 h
Details: 10 µM unless noted
This is part of a sample that, as a whole, favours compounds with a hit. Of some 83,000 tested, about 20% had one in any assay. Activity calls are given as the source filed them. Rule for the calls: active = growth percent below 10; inactive = the rest.
Allowed answers: true for active, false for inactive

molecule=CCOc1ccccc1NC(=O)N/C(N)=N/c1nc2ccccc2s1 group_label=false
molecule="CCOc1ccccc1[C@H]1C(C(=O)c2ccc(Cl)cc2)C2(N[C@@H]1c1ccccc1)C(=O)Nc1ccc(Br)cc12 (stereo partly specified)" group_label=true
molecule=COc1cc(CNC(=O)C[C@H](C)CCC=C(C)C)ccc1OCc1cn(-c2ccc(Cl)c(Cl)c2)nn1 group_label=false
molecule=C=CCn1c(O)c(N=Nc2nc(-c3cc4ccccc4oc3=O)cs2)c2ccccc21 group_label=false
molecule=O=C(N/N=C/c1ccc(-c2cccc([N+](=O)[O-])c2)s1)c1[nH]c2ccc(Br)cc2c1-c1ccccc1 group_label=false
molecule=Cc1cccc(/C=C/c2ccc(NC(=S)NCCCCN(C)C)cc2)c1 group_label=true
molecule="COc1c2c(c(Br)c3c1C(CCc1ccccc1)N(C)CC3)OCO2 (stereo unspecified)" group_label=false
molecule=c1ccc(CSc2nnc(-c3ccc4nc(-c5ccccc5)[nH]c4c3)o2)cc1 group_label=true
molecule=Cn1cc(-c2cc(N)n3nc(-c4c[nH]c5ccc(F)cc45)cc3n2)c2cccnc21 group_label=true
molecule="COc1ccc(CCC2NCCc3c(Br)c4c(c(OC)c32)OCO4)cc1 (stereo unspecified)" group_label=false

Exam item: Check the results log: what was the call for Cc1cccc(-c2ccccc2Oc2ccc3nnc(Cl)n3n2)c1 ?
Marked response: false

Exam item: Check the results log: what was the call for CC(=O)C[n+]1cccc2c3ccccc3ccc21 ?
Marked response: false

Exam item: Check the results log: what was the call for COC(=O)c1ccc(-c2c(-c3ccccc3)c(F)c3oc(C(=O)OC)c(N)c3c2-c2ccccc2)cc1 ?
Marked response: false

Exam item: Check the results log: what was the call for CNS(=O)(=O)N1CCc2c(Br)c3c(c(OC)c2C1CCc1ccccc1)OCO3 (stereo unspecified) ?
Marked response: true

Exam item: Check the results log: what was the call for Cc1cccc(C)c1Nc1nnc(-c2c[nH]c3ccccc23)o1 ?
Marked response: false

###

Tested on: NCI-H226 lung
Experiment: NCI-60 one-dose screen, 48 h (100 = growth as untreated, 0 = no growth, -100 = all killed)
Details: 10 µM unless noted
This is part of a sample that, as a whole, favours compounds with a hit. Of some 83,000 tested, about 20% had one in any assay.
measured_parameter: growth (%)
Express it in %; write the number only.

structure=O=C(N/N=C/c1ccoc1)c1[nH]c2ccc(Br)cc2c1-c1ccccc1 val=-66.2
structure=COc1ccc(-c2nc3ccccc3n2CC(=O)N=Nc2c(O)[nH]c3ccc(OC)cc23)cc1 val=-18.8
structure=CCCCN1C(=O)/C(=C\C(=O)c2cc3ccccc3oc2=O)c2ccccc21 val=88.5
structure=COc1ccc(NC(=O)Cn2c(/C=C/c3ccc([N+](=O)[O-])cc3)nc3ccccc3c2=O)cc1 val=21.2
structure=O=C(N/N=C/c1ccc(Cl)o1)c1[nH]c2ccc(Br)cc2c1-c1ccccc1 val=-42.1

Looking up N#C/C(=C/c1ccc([N+](=O)[O-])cc1)c1nnc(NC(=O)c2ccc(-n3c(=O)[nH]c4ccccc4c3=O)cc2)s1 , I found its growth recorded as 87.8

Looking up O=C1c2cccc3c(N4CCN(Cc5ccccc5)CC4)ccc(c23)C(=O)N1c1cccc(-c2nn(-c3ccccc3)cc2-c2nc3ccccc3s2)c1 , I found its growth recorded as 82

Looking up Cc1ccc(S(=O)(=O)Nc2ccc(-c3ccc4c(c3)NC(=O)/C4=C\c3ccc[nH]3)cc2)cc1 , I found its growth recorded as 94

Looking up C=CCSc1nnc(-c2c(C)nc3sccn23)o1 , I found its growth recorded as 76.1

Looking up CN(C)CCCNC(=S)Nc1ccc(/C=C/c2ccc(Cl)cc2)cc1 , I found its growth recorded as -20.2

Looking up COc1cc(CNC(=O)C[C@H](C)CCC=C(C)C)ccc1OCc1cn(-c2cccc(C(F)(F)F)c2)nn1 , I found its growth recorded as 72.3
